TEST DETAILS: Selectivity index, ratio of CC50 for mouse RAW264.7 cells to ratio of IC50 for human MCF7 cells
Format: toxicity
RUN PARAMETERS: RAW264.7 cells and MCF7 cells, read-out: Ratio CC50/IC50
Response field class: enum, chosen by comparing selectivity ratio against group 1 (below 50), group 2 (50 to below 100), group 3 (100 or more)

INSERT INTO assay_data (smiles_string, classification) VALUES
  ('S=C(N/N=C\c1ccnc2ccccc12)Nc1ccccc1', 'group 3'),
  ('S=C(N/N=C\c1ccnc2ccccc12)Nc1cccnc1', 'group 2'),
  ('S=C(N/N=C\c1ccnc2ccccc12)Nc1cccc2ccccc12', 'group 1'),
  ('S=C(N/N=C\c1ccnc2ccccc12)Nc1ccc(Br)cc1', 'group 2'),
  ('C=CCNC(=S)N/N=C\c1ccnc2ccccc12', 'group 3'),
  ('COc1cc(NS(C)(=O)=O)ccc1Nc1c2ccccc2nc2ccccc12', 'group 3'),
  ('S=C(NCCc1ccccc1)N/N=C\c1ccnc2ccccc12', 'group 1'),
  ('CCc1ccc(NC(=S)N/N=C\c2ccnc3ccccc23)cc1', 'group 1'),
  ('Fc1ccc(NC(=S)N/N=C\c2ccnc3ccccc23)cc1', 'group 1'),
  ('S=C(N/N=C\c1ccnc2ccccc12)Nc1ccc(Cl)cc1', 'group 2');

----------
SYSTEM TESTED: Albumin (Bos taurus)
Sequence (P02769 whole entry): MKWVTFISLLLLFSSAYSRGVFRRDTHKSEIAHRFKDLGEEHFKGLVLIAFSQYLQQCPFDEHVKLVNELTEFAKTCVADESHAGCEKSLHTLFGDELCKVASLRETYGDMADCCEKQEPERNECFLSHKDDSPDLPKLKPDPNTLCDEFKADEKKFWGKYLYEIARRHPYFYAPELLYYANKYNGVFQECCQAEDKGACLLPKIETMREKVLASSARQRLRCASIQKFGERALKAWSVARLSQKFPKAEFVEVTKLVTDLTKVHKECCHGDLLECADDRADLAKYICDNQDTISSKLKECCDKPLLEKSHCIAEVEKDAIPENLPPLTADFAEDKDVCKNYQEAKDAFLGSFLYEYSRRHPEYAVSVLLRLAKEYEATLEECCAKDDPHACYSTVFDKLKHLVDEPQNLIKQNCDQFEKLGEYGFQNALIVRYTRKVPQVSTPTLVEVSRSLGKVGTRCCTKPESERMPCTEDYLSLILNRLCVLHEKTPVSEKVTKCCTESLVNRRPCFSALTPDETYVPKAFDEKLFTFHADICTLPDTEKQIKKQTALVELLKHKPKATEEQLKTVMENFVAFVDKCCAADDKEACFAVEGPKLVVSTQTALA
TEST DETAILS: Binding affinity to bovine serum albumin assessed as hypsochromic shift at 5 to 40 uM by fluorescence emission spectrum analysis method
Format: ADME
RUN PARAMETERS: cattle, isolated protein
READOUT KIND: Activity

INSERT INTO assay_data (smiles_string, reported_value) VALUES
  ('Cc1ccc(NC(=S)N/N=C\c2ccnc3ccccc23)cc1', 'Active'),
  ('S=C(N/N=C\c1ccnc2ccccc12)Nc1ccc(Br)cc1', 'Active'),
  ('S=C(N/N=C\c1ccnc2ccccc12)Nc1cccc2ccccc12', 'Active'),
  ('S=C(N/N=C\c1ccnc2ccccc12)Nc1cccnc1', 'Active'),
  ('S=C(N/N=C\c1ccnc2ccccc12)Nc1ccccc1', 'Active'),
  ('Fc1ccc(NC(=S)N/N=C\c2ccnc3ccccc23)cc1', 'Active');

----------
TEST DETAILS: Selectivity index, ratio of CC50 for mouse RAW264.7 cells to ratio of IC50 for human T47D cells
Assay type: toxicity
RUN PARAMETERS: RAW264.7 cells and T47D cells, read-out: Ratio CC50/IC50
Definition: the class of an entry is the range in low bracket: < 40; middle bracket: ≥ 40 and < 70; high bracket: ≥ 70 that contains its selectivity ratio.

INSERT INTO assay_data (smiles_string, classification) VALUES
  ('COc1ccc(NC(=S)N/N=C\c2ccnc3ccccc23)cc1', 'high bracket'),
  ('COc1cc(NS(C)(=O)=O)ccc1Nc1c2ccccc2nc2ccccc12', 'high bracket'),
  ('Cc1ccc(NC(=S)N/N=C\c2ccnc3ccccc23)cc1', 'low bracket'),
  ('S=C(N/N=C\c1ccnc2ccccc12)Nc1cccc2ccccc12', 'low bracket'),
  ('S=C(NCCc1ccccc1)N/N=C\c1ccnc2ccccc12', 'low bracket'),
  ('S=C(N/N=C\c1ccnc2ccccc12)Nc1ccc(Cl)cc1', 'middle bracket'),
  ('S=C(N/N=C\c1ccnc2ccccc12)Nc1cccnc1', 'high bracket'),
  ('CCc1ccc(NC(=S)N/N=C\c2ccnc3ccccc23)cc1', 'low bracket'),
  ('Fc1ccc(NC(=S)N/N=C\c2ccnc3ccccc23)cc1', 'middle bracket'),
  ('O=[N+]([O-])c1ccc(NC(=S)N/N=C\c2ccnc3ccccc23)cc1', 'middle bracket'),
  ('C=CCNC(=S)N/N=C\c1ccnc2ccccc12', 'high bracket'),
  ('S=C(N/N=C\c1ccnc2ccccc12)Nc1ccccc1', 'high bracket'),
  ('S=C(N/N=C\c1ccnc2ccccc12)Nc1ccc(Br)cc1', 'low bracket');

----------
SYSTEM TESTED: Albumin (Bos taurus)
TEST DETAILS: Binding affinity to bovine serum albumin assessed as Stem-Volmer quenching constant incubated for 10 mins by fluorescence emission spectrum analysis
Format: ADME
RUN PARAMETERS: cattle, isolated protein
Heads up, the class ranges for KSV are zone 1: < 6 ×10⁴ /M; zone 2: ≥ 6 ×10⁴ /M and < 10 ×10⁴ /M; zone 3: ≥ 10 ×10⁴ /M

INSERT INTO results (smiles_string, system_tested, classification) VALUES
  ('S=C(N/N=C\c1ccnc2ccccc12)Nc1cccnc1', 'Albumin (Bos taurus)', 'zone 1'),
  ('C=CCNC(=S)N/N=C\c1ccnc2ccccc12', 'Albumin (Bos taurus)', 'zone 3'),
  ('S=C(NCCc1ccccc1)N/N=C\c1ccnc2ccccc12', 'Albumin (Bos taurus)', 'zone 1'),
  ('S=C(N/N=C\c1ccnc2ccccc12)Nc1ccc(Br)cc1', 'Albumin (Bos taurus)', 'zone 3'),
  ('COc1ccc(NC(=S)N/N=C\c2ccnc3ccccc23)cc1', 'Albumin (Bos taurus)', 'zone 2'),
  ('CCc1ccc(NC(=S)N/N=C\c2ccnc3ccccc23)cc1', 'Albumin (Bos taurus)', 'zone 3'),
  ('Cc1ccc(NC(=S)N/N=C\c2ccnc3ccccc23)cc1', 'Albumin (Bos taurus)', 'zone 2'),
  ('S=C(N/N=C\c1ccnc2ccccc12)Nc1cccc2ccccc12', 'Albumin (Bos taurus)', 'zone 2'),
  ('O=[N+]([O-])c1ccc(NC(=S)N/N=C\c2ccnc3ccccc23)cc1', 'Albumin (Bos taurus)', 'zone 1'),
  ('S=C(N/N=C\c1ccnc2ccccc12)Nc1ccccc1', 'Albumin (Bos taurus)', 'zone 3');

----------
Attribute: Activity
SYSTEM TESTED: Albumin (Bos taurus)
TEST DETAILS: Binding affinity to bovine serum albumin assessed as hyperchromicity at 5 to 40 uM incubated for 10 mins by UV-Vis absorption spectroscopic method relative to control
Assay type: ADME
RUN PARAMETERS: cattle, isolated protein
READOUT KIND: Activity (%)

INSERT INTO assay_data (smiles_string, system_tested, reported_value) VALUES
  ('S=C(N/N=C\c1ccnc2ccccc12)Nc1ccc(Cl)cc1', 'Albumin (Bos taurus)', 53.34),
  ('S=C(N/N=C\c1ccnc2ccccc12)Nc1ccccc1', 'Albumin (Bos taurus)', 52.75),
  ('S=C(N/N=C\c1ccnc2ccccc12)Nc1ccc(Br)cc1', 'Albumin (Bos taurus)', 56.43),
  ('Cc1ccc(NC(=S)N/N=C\c2ccnc3ccccc23)cc1', 'Albumin (Bos taurus)', 58.04),
  ('S=C(N/N=C\c1ccnc2ccccc12)Nc1cccc2ccccc12', 'Albumin (Bos taurus)', 53.34),
  ('Fc1ccc(NC(=S)N/N=C\c2ccnc3ccccc23)cc1', 'Albumin (Bos taurus)', 38.74),
  ('C=CCNC(=S)N/N=C\c1ccnc2ccccc12', 'Albumin (Bos taurus)', 52.42),
  ('CCc1ccc(NC(=S)N/N=C\c2ccnc3ccccc23)cc1', 'Albumin (Bos taurus)', 69.01),
  ('O=[N+]([O-])c1ccc(NC(=S)N/N=C\c2ccnc3ccccc23)cc1', 'Albumin (Bos taurus)', 43.48),
  ('COc1ccc(NC(=S)N/N=C\c2ccnc3ccccc23)cc1', 'Albumin (Bos taurus)', 42.61),
  ('S=C(NCCc1ccccc1)N/N=C\c1ccnc2ccccc12', 'Albumin (Bos taurus)', 62.54),
  ('S=C(N/N=C\c1ccnc2ccccc12)Nc1cccnc1', 'Albumin (Bos taurus)', 52.95);

----------
System: Salmon testes DNA
TEST DETAILS: Binding affinity to salmon sperm […] DNA assessed as DNA intercalation by measuring increase in viscosity at 12 to 60 uM by viscometric method
Type: nucleic-acid assay
RUN PARAMETERS: Salmonidae
Calls of active or inactive are those of the source. The calls are words filed in the database; no cut-off is given here.
READOUT KIND: Activity

INSERT INTO assay_data (smiles_string, readout_kind, reported_value) VALUES
  ('S=C(N/N=C\c1ccnc2ccccc12)Nc1cccnc1', 'Activity', 'Active'),
  ('COc1cc(NS(C)(=O)=O)ccc1Nc1c2ccccc2nc2ccccc12', 'Activity', 'Active'),
  ('S=C(N/N=C\c1ccnc2ccccc12)Nc1ccc(Br)cc1', 'Activity', 'Active'),
  ('S=C(N/N=C\c1ccnc2ccccc12)Nc1ccc(Cl)cc1', 'Activity', 'Active'),
  ('C=CCNC(=S)N/N=C\c1ccnc2ccccc12', 'Activity', 'Active'),
  ('S=C(NCCc1ccccc1)N/N=C\c1ccnc2ccccc12', 'Activity', 'Active'),
  ('COc1ccc(NC(=S)N/N=C\c2ccnc3ccccc23)cc1', 'Activity', 'Active'),
  ('S=C(N/N=C\c1ccnc2ccccc12)Nc1cccc2ccccc12', 'Activity', 'Active'),
  ('O=[N+]([O-])c1ccc(NC(=S)N/N=C\c2ccnc3ccccc23)cc1', 'Activity', 'Active'),
  ('S=C(N/N=C\c1ccnc2ccccc12)Nc1ccccc1', 'Activity', 'Active'),
  ('CCc1ccc(NC(=S)N/N=C\c2ccnc3ccccc23)cc1', 'Activity', 'Active'),
  ('Cc1ccc(NC(=S)N/N=C\c2ccnc3ccccc23)cc1', 'Activity', 'Active'),
  ('Fc1ccc(NC(=S)N/N=C\c2ccnc3ccccc23)cc1', 'Activity', 'Active');

Taken from ChEMBL document CHEMBL4406827.
